Origin of values: patent US20130023553A1

# log10 AUC(0-inf) per record follows
- method.summary: Pharmacokinetics following oral (PO) dosing
- Format: in vivo, Sprague-Dawley rats
- experimental.setup: male, Sprague-Dawley, rat, plasma, po, 5 mg/kg
readout: log10 AUC(0-inf) (log10 of the value in ng·h/mL)

[[record]]
compound = "COCCOCCOCCOC1C=CC2C3Cc4ccc(OC)c5c4C2(CCN3C)C1O5 (stereo not drawn)"
reading = 1.54

[[record]]
compound = "COCCOCCOCCOCCOC1C=CC2C3Cc4ccc(OC)c5c4C2(CCN3C)C1O5 (stereo not drawn)"
reading = 1.65

[[record]]
compound = "COCCOCCOCCOCCOCCOCCOCCOC1C=CC2C3Cc4ccc(OC)c5c4C2(CCN3C)C1O5 (stereo not drawn)"
reading = 2.43

[[record]]
compound = "COCCOCCOCCOCCOCCOCCOCCOCCOCCOC1C=CC2C3Cc4ccc(OC)c5c4C2(CCN3C)C1O5 (stereo not drawn)"
reading = 2.06

[[record]]
compound = "COCCOCCOCCOCCOCCOC1C=CC2C3Cc4ccc(OC)c5c4C2(CCN3C)C1O5 (stereo not drawn)"
reading = 1.99

[[record]]
compound = "COCCOCCOC1C=CC2C3Cc4ccc(OC)c5c4C2(CCN3C)C1O5 (stereo not drawn)"
reading = 0.84

